Data credit: ChEMBL document CHEMBL6071163

Biological target: UniProtKB Q8NER1
Sequence (Q8NER1 whole entry): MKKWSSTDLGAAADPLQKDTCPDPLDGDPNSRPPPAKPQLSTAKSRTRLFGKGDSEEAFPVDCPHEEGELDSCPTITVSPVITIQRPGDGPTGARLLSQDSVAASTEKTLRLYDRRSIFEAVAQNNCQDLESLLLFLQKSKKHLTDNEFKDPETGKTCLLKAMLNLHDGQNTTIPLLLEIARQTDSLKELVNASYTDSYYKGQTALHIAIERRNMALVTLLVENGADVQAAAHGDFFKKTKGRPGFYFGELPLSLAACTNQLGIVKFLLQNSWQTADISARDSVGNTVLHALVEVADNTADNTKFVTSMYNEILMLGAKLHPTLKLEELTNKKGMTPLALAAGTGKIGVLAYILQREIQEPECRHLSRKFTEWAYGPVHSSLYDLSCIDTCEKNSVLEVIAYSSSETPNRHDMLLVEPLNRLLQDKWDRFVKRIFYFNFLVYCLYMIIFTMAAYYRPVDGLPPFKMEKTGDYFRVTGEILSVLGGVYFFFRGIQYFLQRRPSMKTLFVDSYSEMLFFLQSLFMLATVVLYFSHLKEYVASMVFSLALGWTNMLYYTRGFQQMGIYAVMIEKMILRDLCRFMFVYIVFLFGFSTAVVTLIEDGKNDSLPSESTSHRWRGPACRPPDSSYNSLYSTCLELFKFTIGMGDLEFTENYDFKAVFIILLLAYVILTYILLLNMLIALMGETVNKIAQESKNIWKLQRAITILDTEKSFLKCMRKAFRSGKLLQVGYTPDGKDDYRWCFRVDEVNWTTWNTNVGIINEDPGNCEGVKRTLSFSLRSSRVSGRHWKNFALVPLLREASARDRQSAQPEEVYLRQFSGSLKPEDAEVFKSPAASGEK
Experiment: Agonist activity at recombinant human TRPV1 transfected in HEK293 cells assessed as increase in intracellular Ca2+ influx by Fluo-4 NW Ca2+ dye based microfluorometric calcium flux assay
Endpoint Name: pEC50
Scale: pEC50 equals -log10([C]), with [C] in mol/L.

Can you look up the measured pEC50 of CCCCC/C=C\C/C=C\C/C=C\C/C=C\CCCC(=O)OCC(=O)NCCO for me?
5.68

Can you look up the measured pEC50 of CCCCC/C=C\C/C=C\C/C=C\C/C=C\CCCC(=O)OCC(=O)NCCc1ccc(O)c(O)c1 for me?
6.00

Can you look up the measured pEC50 of CCCCCCCCCCCC(=O)OCC(=O)NC1CC1 for me?
5.77

Can you look up the measured pEC50 of CC(C)=CCC/C(C)=C/C(=O)OCC(=O)NCCO for me?
4.57

Can you look up the measured pEC50 of C=CCNC(=O)COC(=O)CCC/C=C\C/C=C\C/C=C\C/C=C\CCCCC for me?
4.66

Can you look up the measured pEC50 of CCCCCC[C@H](C/C=C\CCCCCCCC(=O)OCC(=O)NCCc1ccc(O)c(O)c1)OC(=O)Cc1ccccc1 for me?
5.51

Can you look up the measured pEC50 of C=CCNC(=O)COC(=O)CCCCCCC/C=C\C[C@@H](CCCCCC)OC(=O)Cc1ccccc1 for me?
4.82

Can you look up the measured pEC50 of CC(C)=CCC/C(C)=C/CC/C(C)=C/CC/C=C(\C)CC/C=C(\C)CCC(=O)OCC(=O)NC1CC1 for me?
4.87

Can you look up the measured pEC50 of CC(C)=CCC/C(C)=C/C(=O)OCC(=O)NC1CC1 for me?
4.48
